- Tested on: NCI-H322M lung
- MEASUREMENT_PROTOCOL: NCI-60 one-dose screen, 48 h
- CONDITION_SET: 10 µM unless noted
About 83,000 compounds went through this panel and 20% of them were active in at least one assay; those are over-represented in the sample as a whole. Active and inactive are the calls of the source. How the source made its calls: active means growth percent below 10; inactive means the rest.
Your reply should match one of these outcome classes. YES for active, NO for inactive

Known results for molecules:
| MOLECULE | CLASS |
| --- | --- |
| CN1CCCc2cc(/C=C3\SC(=S)N(C(Cc4ccc(O)cc4)C(=O)O)C3=O)ccc21 (stereo not given) | NO |
| COc1ccc(C2=C(CN)C(O)NC(=NCC(=O)c3ccc4ccccc4c3)N2)cc1 (stereo not given) | NO |
| C=CCN1C=CC(=O)[C@H](O[Si](C)(C)C(C)(C)C)[C@@H]1/C=C/c1ccccc1 | YES |
| Cc1ccc(-c2nc3nc(-c4ccc(Cl)cc4)nc(N4CCCNCC4)c3o2)cc1 | NO |

# lookup: test call for Cc1c(C(C)(C)O)cn2ncnc(Oc3ccc(NC(=O)Nc4ccc(Cl)c(C(F)(F)F)c4)cc3)c12
NO

###

- System: MDA-MB-231 breast
- MEASUREMENT_PROTOCOL: NCI-60 one-dose screen, 48 h
- CONDITION_SET: 10 µM unless noted
About 83,000 compounds went through this panel and 20% of them were active in at least one assay; those are over-represented in the sample as a whole. The source made the active and inactive calls. Rule for the calls: active = growth percent below 10; inactive = the rest.
Response enum: true (active), false (inactive)

Known results for compounds:
| COMPOUND | TARGET_ENTITY | CLASS |
| --- | --- | --- |
| COc1ccccc1/C=C1\COc2ccc(O)cc2C1=O | MDA-MB-231 breast | false |
| Cc1ccc(S(=O)(=O)OC[C@@]2(C)CC[C@]3(C)CC[C@]4(C)C(=C3C2)C=C[C@@H]2[C@@]3(C)CCCNC(C)(C)[C@@H]3CC[C@]24C)cc1 | MDA-MB-231 breast | true |
| CCOC(=O)CCCn1c(-c2ccccc2)cc(-c2ccccc2)c(C#N)c1=O | MDA-MB-231 breast | false |
| COc1cc(/C=C/C(=O)c2ccc(NC(=O)CSc3nnc(-c4cc(-c5ccccc5)nc5ccccc45)n3-c3ccccc3)cc2)cc(OC)c1OC | MDA-MB-231 breast | false |
| O=C(Nc1ncc(Cc2cccc(C(F)(F)F)c2)s1)c1ccc2c(c1)OCCO2 | MDA-MB-231 breast | false |

GET /call?item= CC(=O)c1c(C)nc2ccccc2c1/C=C/c1cccc(C)c1 returns the recorded outcome of this test.
false

Follow-up item: C=C(CNCCc1ccc(O)cc1)[C@@H]1CC[C@]2(CO)CC[C@]3(C)[C@H](CC[C@@H]4[C@@]5(C)CCC(NCCc6ccc(O)cc6)C(C)(C)[C@@H]5CC[C@]43C)[C@@H]12 (some centres undefined)
true

// same read-out, input: COc1ccc(-c2cc(-c3cc(OC)c(OC)c(OC)c3)c(C#N)c(=O)n2CCCCC(=O)O)cc1
false

// next record Cc1nc2cccc(NCCCCC(=O)NO)c2c(=O)n1-c1ccccc1
false

###

- Tested on: RPMI-8226 leukemia
- MEASUREMENT_PROTOCOL: NCI-60 one-dose screen, 48 h (100 = growth as untreated, 0 = no growth, -100 = all killed)
- CONDITION_SET: 10 µM unless noted
Compounds without any hit were thinned out: in the full panel of roughly 83,000, 20% have a hit.
Each entry below carries its recorded growth.
Numeric answer only, unit % assumed.

| COMPOUND | UNITS_SYMBOL | growth |
| --- | --- | --- |
| N#Cc1c(-c2cccc(F)c2)cc(-c2cccnc2)[nH]c1=O | % | 98.8 |
| CC1=C2[C@@H](CC1)[C@]1(C)O[C@@](C(C)C)(C[C@H]1OC(=O)CO)[C@H]2OC(=O)C1CC1c1ccccc1 (some centres undefined) | % | 88.8 |
| O=C(N=Nc1c(O)[nH]c2ccccc12)Nc1ccccc1Cl | % | 84.8 |
| N=C(N)c1ccc(-c2ccc(-c3ccc(Cl)c(Cl)c3)s2)cc1 | % | -15.6 |
| NC(=O)c1c(NC(=O)/C=C/c2cccs2)sc2c1CCC(=O)C2 | % | -9.58 |
| C=C(CNCCc1ccc(O)cc1)[C@@H]1CC[C@]2(CO)CC[C@]3(C)[C@H](CC[C@@H]4[C@@]5(C)CCC(NCCc6ccc(O)cc6)C(C)(C)[C@@H]5CC[C@]43C)[C@@H]12 (some centres undefined) | % | -51.7 |
| COc1cccc(NC(=O)c2sc3nc(C)c(C(O)c4ccccc4)cc3c2N)c1 (centres undefined) | % | 13.8 |
| Nc1nc(N)c2c(n1)NC(c1ccc(Cl)cc1)CC(c1cccc(Nc3ccncc3)c1)=N2 (centres undefined) | % | 55.9 |

Returns the measured growth for the input compound. Input: C/C=C(/C)C(=O)O[C@@H]1CC(C)(C)CC2C34OC(=O)[C@@]21CC[C@@]3(C)[C@]1(C)CCC2C(C)(C)C(=O)CC[C@]2(C)C1C[C@@H]4Cl (some centres undefined)
91

Same thing, different compound: COc1ccc(C/C(C)=C(\c2ccc(O)cc2)c2ccc(OCCCN(C)C)cc2)cc1
86.8

Now give it for C=C(C)[C@@H]1CC[C@]2(C(=O)N3CCN(C)CC3)CC[C@]3(C)[C@H](CC[C@@H]4[C@@]5(C)CC(CCCNC(C)=O)(CCCNC(C)=O)[C@H](OC(C)=O)C(C)(C)[C@@H]5CC[C@]43C)[C@@H]12 too.
75.5

Likewise for Cc1ccc(/C=C(\C#N)c2cc3ccccc3[nH]2)cc1 ?
60.2
